assay notes: Pharmacokinetics: plasma levels after topical RB cream
Assay type: in vivo, SKH1-Hrhr hairless mice
protocol conditions: SKH1-Hrhr hairless, mouse, plasma, topical, 1 mg, 0.25 h post-dose; 3 mice
metric: concentration at 0.25 h (ng/mL)
Provide only the numeric value, understood in ng/mL.

Give the reported concentration at 0.25 h for this molecule. C=CC[N+]1([C@H]2C[C@H]3[C@@H]4CC[C@H]5C[C@H](O)[C@@H](N6CCOCC6)C[C@]5(C)[C@H]4CC[C@]3(C)[C@H]2OC(C)=O)CCCC1 [rocuronium bromide]
1100

----------
System: nuclear factor kappa B (NF-κB) pathway
assay notes: Cell-based assay of the nuclear factor kappa B (NF-κB) pathway
protocol conditions: final dose 100 μg/ml; read-out: % inhibition of NF-κB
metric: inhibition at 100 µg/mL (%)
Kindly answer with a numeric value in %, unit omitted.

1) O=c1c(O)c(-c2ccc(O)cc2)oc2c(O)c(O)cc(O)c12 [HI-12, herbacetin]: 49
2) O=C1C[C@@H](c2ccc(O)cc2)Oc2cc(O)cc(O)c21 [HI-5, naringenin]: 62
3) O=c1c(O)c(-c2cc(O)c(O)c(O)c2)oc2cc(O)cc(O)c12 [HI-8, myricetin]: 44

Please give the documented inhibition at 100 µg/mL of O=c1c(-c2ccc(O)c(O)c2)coc2cc(O)ccc12 [HI-1, 7,3,4′-trihydroxyisoflavone]
40

Identify measured inhibition at 100 µg/mL associated with O=c1c(O)c(-c2ccc(O)cc2)oc2cc(O)ccc12 [HI-7, 3,7,4′-trihydroxyflavone]
66

----------
inhibition at 100 µg/mL: recorded values
System: nuclear factor kappa B (NF-κB) pathway
assay notes: Cell-based assay of the nuclear factor kappa B (NF-κB) pathway
protocol conditions: read-out: % inhibition of NF-κB

1) O=c1c(O)c(-c2ccc(O)c(O)c2)oc2cc(O)c(O)c(O)c12: 20%

State measured inhibition at 100 µg/mL of the molecule `C=CCc1ccc(O)c(-c2cc(CC=C)ccc2O)c1` with nuclear factor kappa B (NF-κB) pathway.
> 90%

Jot down inhibition at 100 µg/mL (nuclear factor kappa B (NF-κB) pathway) of `O=C(/C=C/c1ccc(O)c(O)c1)OCCc1ccccc1` .
> 90%

Tell me inhibition at 100 µg/mL of `COc1cc(-c2oc3cc(O)cc(O)c3c(=O)c2O)ccc1O` when tested on nuclear factor kappa B (NF-κB) pathway.
43%

----------
assay notes: Pharmacokinetics: plasma levels after topical RB cream
Format: in vivo, SKH1-Hrhr hairless mice
protocol conditions: SKH1-Hrhr hairless, mouse, plasma, topical, 1 mg, 0.5 h post-dose; 3 mice
metric: concentration at 0.5 h (ng/mL)
Express the result in ng/mL but write the number alone.

Tell me concentration at 0.5 h reported for C=CC[N+]1([C@H]2C[C@H]3[C@@H]4CC[C@H]5C[C@H](O)[C@@H](N6CCOCC6)C[C@]5(C)[C@H]4CC[C@]3(C)[C@H]2OC(C)=O)CCCC1 [rocuronium bromide]
77.3

----------
Test system: elastin
assay notes: Induction of elastin
Assay type: cell-based
protocol conditions: final dose 10 μg/ml
metric: fold induction at 10 µg/mL

1) O=C(/C=C/c1ccc(O)c(O)c1)OCCc1ccccc1: < 1.3
2) C=CCc1ccc(O)c(-c2cc(CC=C)ccc2O)c1: < 1.3

State its fold induction at 10 µg/mL: `O=c1c(O)c(-c2cc(O)c(O)c(O)c2)oc2cc(O)cc(O)c12`
< 1.3
